Values were extracted from patent US5073572A.

assay: lymphocyte viability (LCV) assay; assay type: cell-based, murine; settings: mouse, splenocytes, 0.1 ug/well; percentage of positive LCV control (no compound)
For each entry below, report its viability value.
One number for each entry, in %.

C#CC(O)C=CCCCCCCCCCC=CCCCCCC (centres unmarked) [SP10099] ... 34

Please go through the list and note viability for each compound.
1. C#CC(O)C=CCCCCCCCCCCCCCC(C)C (centres unmarked) [SP10101]
2. C#CC(O)C=CCCCCCCCCCCCCCCC (centres unmarked) [SP10098]
3. C#CC(O)C=CCCCCCCCCCC=CCCCCC(C)C (centres unmarked) [SP10102]
4. C#CC(O)C=CCCCCCCCCCCC(C)CCCC (centres unmarked) [SP10100]

Reply |
49
61
45
42
